Assay: The compound was tested for clearance in dog plasma.
Format: ADME, organism-based, Canis lupus familiaris

[
  {
    "structure_as_smiles": "Cc1cc(OCC/C=N/N=C(N)N)cc(OS(=O)(=O)c2ccccc2Cl)c1",
    "clearance / mL/min/kg": 39
  },
  {
    "structure_as_smiles": "Cc1cc(OCC/C=N/N=C(N)N)cc(OS(=O)(=O)c2ccccc2C#N)c1",
    "clearance / mL/min/kg": 79
  }
]

###

Test: Oral bioavailability in dog
Format: ADME, organism-based, Canis lupus familiaris
Conditions: in vivo
measured_property: bioavailability (%)

[
  {
    "structure_as_smiles": "Cc1cc(OCC/C=N/N=C(N)N)cc(OS(=O)(=O)c2ccccc2Cl)c1",
    "observed_result": 23
  },
  {
    "structure_as_smiles": "Cc1cc(OCC/C=N/N=C(N)N)cc(OS(=O)(=O)c2ccccc2C#N)c1",
    "observed_result": 21
  }
]
